system: 616215-338-R-J1-PDC complex spheroid growth, % test/control; experiment: Anticancer human tumor 616215-338-R-J1-PDC patient-derived colon adenocarcinoma cell line growth inhibition [Asc]; details: second compound 10 µM; first compound 0.0316 µM; active compounds read low
experimental_readout: viability, T/C

molecule="CNC(C)C(=O)NC1CN(S(=O)(=O)c2cccc(S(=O)(=O)N3CCC4CCC(C(=O)NC(c5ccccc5)c5ccccc5)N4C(=O)C(NC(=O)C(C)NC)C3)c2)CCC2CCC(C(=O)NC(c3ccccc3)c3ccccc3)N2C1=O (stereo not drawn) + Cc1c(S(C)(=O)=O)c(-c2cc(F)cc(N3CCN(c4ccc(NS(=O)(=O)c5ccc(NC(CCN6CCC(C(=O)OCCCP(=O)(O)O)CC6)CSc6ccccc6)c(S(=O)(=O)C(F)(F)F)c5)cc4)CC3)c2)c(-c2ccc(Cl)cc2)n1C(C)C" result=27.9%
molecule="COc1c(OCCCN2CCOCC2)ccc2c3n(c(=NC(=O)c4cnc(N)nc4)nc12)CCN3 + Cc1c(S(C)(=O)=O)c(-c2cc(F)cc(N3CCN(c4ccc(NS(=O)(=O)c5ccc(NC(CCN6CCC(C(=O)OCCCP(=O)(O)O)CC6)CSc6ccccc6)c(S(=O)(=O)C(F)(F)F)c5)cc4)CC3)c2)c(-c2ccc(Cl)cc2)n1C(C)C" result=35.4%

Let us move to another entry and its viability, T/C.
q: Fill in: viability, T/C of C=CC(=O)N1CCN(c2nc(=O)n(-c3c(C)ccnc3C(C)C)c3nc(-c4c(O)cccc4F)c(F)cc23)C(C)C1 (stereo not drawn) + Cc1c(S(C)(=O)=O)c(-c2cc(F)cc(N3CCN(c4ccc(NS(=O)(=O)c5ccc(NC(CCN6CCC(C(=O)OCCCP(=O)(O)O)CC6)CSc6ccccc6)c(S(=O)(=O)C(F)(F)F)c5)cc4)CC3)c2)c(-c2ccc(Cl)cc2)n1C(C)C is ___
a: 24.9%

====

Listed here are compounds together with their documented viability, T/C.
system: 616215-338-R-J1-PDC complex spheroid growth, % test/control; assay: Anticancer human tumor 616215-338-R-J1-PDC cell line growth inhibition [Asc]; details: second compound 10 µM; first compound 0.1 µM; active compounds read low;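 also: spheroids exposed to agents for seven days before readout; 100% = DMSO vehicle control viability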
Write down the numeric answer in % and omit the unit.

Sample answers from the record:
compound="COc1c(OCCCN2CCOCC2)ccc2c3n(c(=NC(=O)c4cnc(N)nc4)nc12)CCN3 + Cc1c(S(C)(=O)=O)c(-c2cc(F)cc(N3CCN(c4ccc(NS(=O)(=O)c5ccc(NC(CCN6CCC(C(=O)OCCCP(=O)(O)O)CC6)CSc6ccccc6)c(S(=O)(=O)C(F)(F)F)c5)cc4)CC3)c2)c(-c2ccc(Cl)cc2)n1C(C)C" experimental_readout="viability, T/C" quantitative_result=4.88
compound="NC1CCC(NC2CC2c2ccccc2)CC1 (centres undefined) + Cc1c(S(C)(=O)=O)c(-c2cc(F)cc(N3CCN(c4ccc(NS(=O)(=O)c5ccc(NC(CCN6CCC(C(=O)OCCCP(=O)(O)O)CC6)CSc6ccccc6)c(S(=O)(=O)C(F)(F)F)c5)cc4)CC3)c2)c(-c2ccc(Cl)cc2)n1C(C)C" experimental_readout="viability, T/C" quantitative_result=21.5
compound="O=C(c1cc(Cc2n[nH]c(=O)c3ccccc23)ccc1F)N1CCN(C(=O)C2CC2)CC1 + Cc1c(S(C)(=O)=O)c(-c2cc(F)cc(N3CCN(c4ccc(NS(=O)(=O)c5ccc(NC(CCN6CCC(C(=O)OCCCP(=O)(O)O)CC6)CSc6ccccc6)c(S(=O)(=O)C(F)(F)F)c5)cc4)CC3)c2)c(-c2ccc(Cl)cc2)n1C(C)C" experimental_readout="viability, T/C" quantitative_result=18.4

q: Fill in: viability, T/C of C#Cc1c(F)ccc2cc(O)cc(-c3ncc4c(N5CC6CCC(C5)N6)nc(OCC56CCCN5CC(F)C6)nc4c3F)c12 (centres undefined) + Cc1c(S(C)(=O)=O)c(-c2cc(F)cc(N3CCN(c4ccc(NS(=O)(=O)c5ccc(NC(CCN6CCC(C(=O)OCCCP(=O)(O)O)CC6)CSc6ccccc6)c(S(=O)(=O)C(F)(F)F)c5)cc4)CC3)c2)c(-c2ccc(Cl)cc2)n1C(C)C is ___
a: 25.5

====

test system: 616215-338-R-J1-PDC complex spheroid growth, % test/control; test: Anticancer human tumor 616215-338-R-J1-PDC cell line growth inhibition [Asc]; conditions: second compound 0.1 µM; first compound 0.01 µM; active compounds read low;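 also: spheroids exposed to agents for seven days before readout; 100% = DMSO vehicle control viability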
Listed here are compounds together with their documented viability, T/C.
Write down the numeric answer in % and omit the unit.

compound="COc1c(OCCCN2CCOCC2)ccc2c3n(c(=NC(=O)c4cnc(N)nc4)nc12)CCN3 + Cc1c(S(C)(=O)=O)c(-c2cc(F)cc(N3CCN(c4ccc(NS(=O)(=O)c5ccc(NC(CCN6CCC(C(=O)OCCCP(=O)(O)O)CC6)CSc6ccccc6)c(S(=O)(=O)C(F)(F)F)c5)cc4)CC3)c2)c(-c2ccc(Cl)cc2)n1C(C)C" subject_of_test="616215-338-R-J1-PDC complex spheroid growth, % test/control" quantitative_result=100

q: Fill in: viability, T/C of CCN1CCN(Cc2ccc(Nc3ncc(F)c(-c4cc(F)c5nc(C)n(C(C)C)c5c4)n3)nc2)CC1 + Cc1c(S(C)(=O)=O)c(-c2cc(F)cc(N3CCN(c4ccc(NS(=O)(=O)c5ccc(NC(CCN6CCC(C(=O)OCCCP(=O)(O)O)CC6)CSc6ccccc6)c(S(=O)(=O)C(F)(F)F)c5)cc4)CC3)c2)c(-c2ccc(Cl)cc2)n1C(C)C is ___
a: 89.3

q: Fill in: viability, T/C of Cn1ncnc1[C@H]1c2n[nH]c(=O)c3cc(F)cc(c23)N[C@@H]1c1ccc(F)cc1 + CNC(C)C(=O)NC1CN(S(=O)(=O)c2cccc(S(=O)(=O)N3CCC4CCC(C(=O)NC(c5ccccc5)c5ccccc5)N4C(=O)C(NC(=O)C(C)NC)C3)c2)CCC2CCC(C(=O)NC(c3ccccc3)c3ccccc3)N2C1=O is ___
a: 108

q: Fill in: viability, T/C of NC1CCC(NC2CC2c2ccccc2)CC1 (centres undefined) + Cc1c(S(C)(=O)=O)c(-c2cc(F)cc(N3CCN(c4ccc(NS(=O)(=O)c5ccc(NC(CCN6CCC(C(=O)OCCCP(=O)(O)O)CC6)CSc6ccccc6)c(S(=O)(=O)C(F)(F)F)c5)cc4)CC3)c2)c(-c2ccc(Cl)cc2)n1C(C)C is ___
a: 85.8

====

tested on: 616215-338-R-J1-PDC complex spheroid growth, % test/control; assay: Anticancer human tumor 616215-338-R-J1-PDC cell line growth inhibition [Asc]; details: second compound 0.3 µM; first compound 0.316 µM; active compounds read low;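 also: spheroids exposed to agents for seven days before readout; 100% = DMSO vehicle control viability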
Listed here are compounds together with their documented viability, T/C.
Write down the numeric answer in % and omit the unit.

Sample answers from the record:
compound="C=C(F)C(=O)N1CCN(c2nc(OCC3CCCN3C)nc3c2CCN(c2cccc4cccc(Cl)c24)C3)CC1CC#N (stereo not given) + CCN1C(C(=O)NC23CCC(C(=O)O)(CC2)CC3)C(c2cccc(Cl)c2F)C2(C(=O)Nc3cc(Cl)ccc32)C12CCCCC2" unit_spec=% quantitative_result=66
compound="C#Cc1c(F)ccc2cc(O)cc(-c3ncc4c(N5CC6CCC(C5)N6)nc(OCC56CCCN5CC(F)C6)nc4c3F)c12 (stereo not given) + CCN1C(C(=O)NC23CCC(C(=O)O)(CC2)CC3)C(c2cccc(Cl)c2F)C2(C(=O)Nc3cc(Cl)ccc32)C12CCCCC2" unit_spec=% quantitative_result=61.6
compound="CNC(C)C(=O)NC1CN(S(=O)(=O)c2cccc(S(=O)(=O)N3CCC4CCC(C(=O)NC(c5ccccc5)c5ccccc5)N4C(=O)C(NC(=O)C(C)NC)C3)c2)CCC2CCC(C(=O)NC(c3ccccc3)c3ccccc3)N2C1=O (stereo not given) + CCN1C(C(=O)NC23CCC(C(=O)O)(CC2)CC3)C(c2cccc(Cl)c2F)C2(C(=O)Nc3cc(Cl)ccc32)C12CCCCC2" unit_spec=% quantitative_result=66.5
compound="O=C(c1ccc(F)c(F)c1Nc1ccc(I)cc1F)N1CC(O)([C@@H]2CCCCN2)C1 + CCN1C(C(=O)NC23CCC(C(=O)O)(CC2)CC3)C(c2cccc(Cl)c2F)C2(C(=O)Nc3cc(Cl)ccc32)C12CCCCC2" unit_spec=% quantitative_result=1.18

Let us move to another entry and its viability, T/C.
q: Fill in: viability, T/C of C=CC(=O)N1CCN(c2nc(=O)n(-c3c(C)ccnc3C(C)C)c3nc(-c4c(O)cccc4F)c(F)cc23)C(C)C1 (stereo not given) + CCN1C(C(=O)NC23CCC(C(=O)O)(CC2)CC3)C(c2cccc(Cl)c2F)C2(C(=O)Nc3cc(Cl)ccc32)C12CCCCC2 is ___
a: 66.8

====

system: 616215-338-R-J1-PDC complex spheroid growth, % test/control; experiment: Anticancer human tumor 616215-338-R-J1-PDC cell line growth inhibition [Asc]; details: second compound 0.316 µM; first compound 0.316 µM; active compounds read low;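 also: spheroids exposed to agents for seven days before readout; 100% = DMSO vehicle control viability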
Listed here are compounds together with their documented viability, T/C.
Write down the numeric answer in % and omit the unit.

compound="CNC(C)C(=O)NC1CN(S(=O)(=O)c2cccc(S(=O)(=O)N3CCC4CCC(C(=O)NC(c5ccccc5)c5ccccc5)N4C(=O)C(NC(=O)C(C)NC)C3)c2)CCC2CCC(C(=O)NC(c3ccccc3)c3ccccc3)N2C1=O (stereo not drawn) + Cc1c(S(C)(=O)=O)c(-c2cc(F)cc(N3CCN(c4ccc(NS(=O)(=O)c5ccc(NC(CCN6CCC(C(=O)OCCCP(=O)(O)O)CC6)CSc6ccccc6)c(S(=O)(=O)C(F)(F)F)c5)cc4)CC3)c2)c(-c2ccc(Cl)cc2)n1C(C)C" subject_of_test="616215-338-R-J1-PDC complex spheroid growth, % test/control" experimental_readout="viability, T/C" unit_spec=% quantitative_result=87.9
compound="COc1c(OCCCN2CCOCC2)ccc2c3n(c(=NC(=O)c4cnc(N)nc4)nc12)CCN3 + CNC(C)C(=O)NC1CN(S(=O)(=O)c2cccc(S(=O)(=O)N3CCC4CCC(C(=O)NC(c5ccccc5)c5ccccc5)N4C(=O)C(NC(=O)C(C)NC)C3)c2)CCC2CCC(C(=O)NC(c3ccccc3)c3ccccc3)N2C1=O" subject_of_test="616215-338-R-J1-PDC complex spheroid growth, % test/control" experimental_readout="viability, T/C" unit_spec=% quantitative_result=15.3

q: Fill in: viability, T/C of CCN1CCN(Cc2ccc(Nc3ncc(F)c(-c4cc(F)c5nc(C)n(C(C)C)c5c4)n3)nc2)CC1 + CNC(C)C(=O)NC1CN(S(=O)(=O)c2cccc(S(=O)(=O)N3CCC4CCC(C(=O)NC(c5ccccc5)c5ccccc5)N4C(=O)C(NC(=O)C(C)NC)C3)c2)CCC2CCC(C(=O)NC(c3ccccc3)c3ccccc3)N2C1=O is ___
a: 61.3
